The measured values listed here are drawn from patent US4526894A.

Items are presented alongside their recorded SRS-A Inhibition Ratio %.
system: SRS-A (slow reacting substance of anaphylaxis); assay: Anti-SRS-A action using isolated ileus of guinea pigs; settings: 10^-6 M; guinea pig ileus, SRS-A 20 units; 5 min, 1 µM
valueKind: SRS-A Inhibition Ratio % (%)

                                    molecule                 valuekind  recordedmeasurement
 0  O=C(c1ccccc1)c1c(O)c2ccc([N+](=O)[O-])cc2[nH]c1=O [Example 10, 3-benzoyl-4-hydroxy-7-nitro-2-quinolone]  SRS-A Inhibition Ratio %                 22.3
 1  O=C(c1ccc([N+](=O)[O-])cc1)c1c(O)c2ccccc2[nH]c1=O  SRS-A Inhibition Ratio %                 22.0
 2   O=C(c1ccc(Cl)cc1)c1c(O)c2ccccc2[nH]c1=O  SRS-A Inhibition Ratio %                 27.0
 3  COc1ccc(C(=O)c2c(O)c3ccccc3[nH]c2=O)cc1OC  SRS-A Inhibition Ratio %                 24.2
 4  Cc1ccc2c(O)c(C(=O)c3ccccc3)c(=O)[nH]c2c1 [Example 18, 3-benzoyl-4-hydroxy-7-methyl-2-quinolone]  SRS-A Inhibition Ratio %                 21.3
 5     COc1ccccc1C(=O)c1c(O)c2ccccc2[nH]c1=O  SRS-A Inhibition Ratio %                 20.2
 6  COC(=O)c1cccc2c(O)c(C(=O)c3ccccc3)c(=O)[nH]c12  SRS-A Inhibition Ratio %                 19.8
 7  CCCCCc1ccc(C(=O)c2c(O)c3ccccc3[nH]c2=O)cc1  SRS-A Inhibition Ratio %                 26.9
 8     O=C(c1ccccc1Cl)c1c(O)c2ccccc2[nH]c1=O  SRS-A Inhibition Ratio %                 32.6
 9  COc1ccc(C(=O)c2c(O)c3cccc(C)c3[nH]c2=O)cc1OC  SRS-A Inhibition Ratio %                 20.5
10  COC(=O)c1cccc2[nH]c(=O)c(C(=O)c3ccccc3)c(O)c12  SRS-A Inhibition Ratio %                 26.4
11  Cc1cc(C)c2[nH]c(=O)c(C(=O)c3ccccc3Cl)c(O)c2c1  SRS-A Inhibition Ratio %                 28.3
12  O=C(c1ccccc1)c1c(O)c2cccc(C(=O)O)c2[nH]c1=O  SRS-A Inhibition Ratio %                 22.4
13  COc1ccc(C(=O)c2c(O)c3ccccc3[nH]c2=O)c(OC)c1  SRS-A Inhibition Ratio %                 42.9
14  Cc1ccc2[nH]c(=O)c(C(=O)c3ccccc3)c(O)c2c1 [Example 17, 3-benzoyl-4-hydroxy-6-methyl-2-quinolone]  SRS-A Inhibition Ratio %                 21.9
15  Cc1cc2[nH]c(=O)c(C(=O)c3ccccc3)c(O)c2cc1C  SRS-A Inhibition Ratio %                 23.5
16  CCCCc1ccc2[nH]c(=O)c(C(=O)c3ccccc3)c(O)c2c1 [Example 22, 3-benzoy-6-n-butyl-4-hydroxy-2-quinolone]  SRS-A Inhibition Ratio %                 39.5
17  COc1ccc(C(=O)c2c(O)c3ccccc3[nH]c2=O)c(OC)c1OC  SRS-A Inhibition Ratio %                  100
